- assay_system: recombinant human NF-kappaB-inducing kinase (NIK/MAP3K14) (Homo sapiens)
- Sequence (Q99558 whole entry): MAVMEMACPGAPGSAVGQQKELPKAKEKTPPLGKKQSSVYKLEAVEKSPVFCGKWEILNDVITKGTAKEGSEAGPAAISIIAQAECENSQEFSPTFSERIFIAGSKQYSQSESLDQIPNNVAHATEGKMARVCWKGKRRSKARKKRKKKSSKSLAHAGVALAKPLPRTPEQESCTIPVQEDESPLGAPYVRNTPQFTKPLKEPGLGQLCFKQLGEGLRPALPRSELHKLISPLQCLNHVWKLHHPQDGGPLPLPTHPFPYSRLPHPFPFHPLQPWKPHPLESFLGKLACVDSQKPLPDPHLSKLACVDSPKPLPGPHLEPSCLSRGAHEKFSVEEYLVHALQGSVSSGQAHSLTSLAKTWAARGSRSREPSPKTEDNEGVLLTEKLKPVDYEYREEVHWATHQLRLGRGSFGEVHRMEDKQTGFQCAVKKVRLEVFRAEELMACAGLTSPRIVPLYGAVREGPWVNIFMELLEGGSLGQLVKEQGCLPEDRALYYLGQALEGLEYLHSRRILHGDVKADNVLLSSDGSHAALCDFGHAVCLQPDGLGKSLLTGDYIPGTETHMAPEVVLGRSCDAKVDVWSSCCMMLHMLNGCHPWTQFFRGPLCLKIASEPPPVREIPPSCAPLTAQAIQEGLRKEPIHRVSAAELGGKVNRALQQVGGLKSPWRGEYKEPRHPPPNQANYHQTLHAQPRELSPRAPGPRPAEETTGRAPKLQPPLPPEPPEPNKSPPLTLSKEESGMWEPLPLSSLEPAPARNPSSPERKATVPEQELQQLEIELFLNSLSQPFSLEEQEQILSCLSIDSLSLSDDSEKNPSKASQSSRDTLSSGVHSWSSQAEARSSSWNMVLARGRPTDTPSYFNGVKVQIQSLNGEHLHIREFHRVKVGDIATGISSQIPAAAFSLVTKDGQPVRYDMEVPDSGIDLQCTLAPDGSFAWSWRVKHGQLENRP
- procedure_text: Biological Assay B: inhibition of auto-phosphorylation of recombinant human NIK/MAP3K14 (AlphaScreen), performed at 2 locations
- Format: biochemical
- condition_parameters: location 2; AlphaScreen auto-phosphorylation; averaged values; read-out: Assay B location 2 IC50
pIC50: −log10 of the molar value.

| compound | pIC50 |
| --- | --- |
| CCc1ccc(OC)c(Nc2nccc(-c3cnc4c(c3)C(C)(CO)CN4)n2)c1 (stereo not shown) | 7.42 |
| Cc1cc(N2CCOCC2)c(Cl)cc1Nc1nccc(-c2cnc3c(c2)C(C)(CO)CN3)n1 (single isomer, unassigned) [Compound 257] | 8.47 |
| COc1cc(C(=O)N2CCCC(OC)CC2)ccc1Nc1nccc(-c2cnc3c(c2)C(C)(CO)CN3)n1 (stereo not shown) | 8.27 |
| CCN1CCN(c2cc(OC)c(Nc3nccc(-c4cnc5c(c4)C(C)(CO)CN5)n3)cc2Cl)CC1 (single isomer, unassigned) [Compound 295] | 8.29 |
| COCCOc1cc(N2CCOCC2)c(Cl)cc1Nc1nccc(-c2cnc3c(c2)C(C)(CO)CN3)n1 (stereo not shown) | 7.66 |
| COc1cc(N2CC3(CCOCC3)C2)ccc1Nc1nccc(-c2cnc3c(c2)C(C)(CO)CN3)n1 (stereo not shown) | 7.86 |
| COc1cc(N2CC3(CCOCC3)C2)c(Cl)cc1Nc1nccc(-c2cnc3c(c2)C(C)(CO)CN3)n1 (stereo not shown) [Compound 3] | 8.66 |

Cited source for all entries: patent US11236084B2
